testDetails: Pharmacokinetics of ipragliflozin
Assay type: in vivo, human (Japanese patients)
measurementSetup: human, plasma, oral, 25 mg/day, AUC24h, 25 mg/day; day 14; mean ± SD
measurementKind: AUC(0-t) (ng·h/mL)
Only the number, expressed in ng·h/mL, is required.

Indicate the recorded AUC(0-t) value for this compound: OC[C@H]1O[C@@H](c2ccc(F)c(Cc3cc4ccccc4s3)c2)[C@H](O)[C@@H](O)[C@@H]1O
2510

* * *

testDetails: Pharmacokinetics of ipragliflozin
Assay type: in vivo, human (Japanese patients)
measurementSetup: human, plasma, oral, 50 mg/day, AUC24h, 50 mg/day; day 14; mean ± SD
measurementKind: AUC(0-t)
# include the unit after the value

Indicate the recorded AUC(0-t) value for this molecule: OC[C@H]1O[C@@H](c2ccc(F)c(Cc3cc4ccccc4s3)c2)[C@H](O)[C@@H](O)[C@@H]1O [ipragliflozin]
5790 ng·h/mL
